Molecular target: T1, human GITR (human, UniProt Q9Y5U5 26-241)
T1 construct: also called TNFRSF18; Glucocorticoid-induced TNFR-related gene
T1 sequence: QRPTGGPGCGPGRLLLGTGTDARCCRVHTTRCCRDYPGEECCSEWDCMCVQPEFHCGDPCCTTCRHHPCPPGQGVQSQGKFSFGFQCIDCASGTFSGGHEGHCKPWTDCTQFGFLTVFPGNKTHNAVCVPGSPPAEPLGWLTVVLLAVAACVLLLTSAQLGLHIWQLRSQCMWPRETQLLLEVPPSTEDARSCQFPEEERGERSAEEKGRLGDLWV
Assay: flow cytometry, human T cell binding
PROPERTY NAME: EC50 (µg/mL)
The reply should be a number in µg/mL, with the unit left off.

Recorded results for 2 binders are shown here.
41G5v2 (antibody, human IgG1, kappa, V domains shown, Engineered variant; also called Ab56; SS-13809) VH: QVQLVESGGGVVQPGRSLRLSCAASGFTFSSYGMHWVRQAPGKGLEWVAVIWYPGSNKYYAESVKGRFTISRDNSKNTLYLQMNSLRAEDTAVYYCARGGELGRYYYYGMDVWGQGTTVTVSS VL: DIQMTQSPSSLSASVGDRVTVTCRASQGIRNDLGWYQQKPGKAPKRLIYAASSLQSGVPSRFSGSGSGTEFTLTISSLQPEDFATYYCLQHNNYPWTFGQGTKVDIKR; 0.033
7A10v1 (antibody, human IgG1, kappa, V domains shown, Engineered variant; also called Ab39; SS-13810) VH: QVQLVESGGGVVQPGRSLRLSCAASGFTFSSYGMHWVRQAPGKGLEWMAVIWYVGSNKYYADSVKGRFTISRDNSKNTLYLQMNSLRAEDTAVYYCARGGELGRDYYSGMDVWGQGTTVTVSS VL: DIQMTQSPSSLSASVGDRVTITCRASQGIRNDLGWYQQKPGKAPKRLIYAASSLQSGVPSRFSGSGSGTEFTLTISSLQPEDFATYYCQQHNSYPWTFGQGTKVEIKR; 0.027

Below: the item to evaluate.
Hello, please tell me recorded EC50 for this one: 33C9v2 (antibody, human IgG1, kappa, V domains shown, Engineered variant; also called Ab51; SS-13808) VH: QVQVVESGGGVVQPGRSLRLSCAASGFTFSSYGMHWVRQAPGKGLEWVSVIWYEGSNKYYAESVKGRFTISRDNSKNTLYLQMNSLRAEDTAVYYCARGGLLGYYYYYGMDVWGQGTTVTVSS VL: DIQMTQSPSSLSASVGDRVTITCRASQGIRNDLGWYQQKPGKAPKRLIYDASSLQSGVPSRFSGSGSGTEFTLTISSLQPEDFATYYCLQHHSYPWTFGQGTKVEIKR 0.035
